Would you mind telling me the reported MIC of each entry?
Test system: B. amyloliquefaciens ART24
Experiment: Antibiotic MIC following EFSA testing recommendations on lyophilized ART24 lots and cell banks
Type: cell-based, Bacillus amyloliquefaciens
Details: Bacillus amyloliquefaciens, ART24, source CO-33 ART 24 BHI; read-out: MIC for ART24
State just the number; it will be interpreted in µg/mL.

Output MIC of `CN(C)[C@@H]1C(O)=C(C(N)=O)C(=O)[C@@]2(O)C(O)=C3C(=O)c4c(O)cccc4[C@@](C)(O)[C@H]3C[C@@H]12` 2

Output MIC of `CC(=O)NC[C@H]1CN(c2ccc(N3CCOCC3)c(F)c2)C(=O)O1` 0.5

Output MIC of `O=C(N[C@H](CO)[C@H](O)c1ccc([N+](=O)[O-])cc1)C(Cl)Cl` 2

Output MIC of `CCc1c(Cl)c(O)c(Cl)c(O)c1C(=O)O[C@H]1[C@H](O)[C@H](OC)[C@H](OC/C2=C\C=C\C[C@H](O)/C(C)=C/[C@H](CC)[C@@H](O[C@@H]3OC(C)(C)[C@@H](OC(=O)C(C)C)[C@H](O)[C@@H]3O)/C(C)=C/C(C)=C/C[C@@H]([C@@H](C)O)OC2=O)O[C@@H]1C` 4

Output MIC of `CC[C@H]1OC(=O)[C@H](C)[C@@H](O[C@H]2C[C@@](C)(OC)[C@@H](O)[C@H](C)O2)[C@H](C)[C@@H](O[C@@H]2O[C@H](C)C[C@H](N(C)C)[C@H]2O)[C@](C)(O)C[C@@H](C)C(=O)[C@H](C)[C@@H](O)[C@]1(C)O` 0.12

Output MIC of `CCC[C@@H]1C[C@@H](C(=O)N[C@@H]([C@H]2O[C@H](SC)[C@H](O)[C@@H](O)[C@H]2O)[C@H](C)Cl)N(C)C1` 0.25

Output MIC of `[H]/N=C(/N)N[C@H]1[C@H](O)[C@@H](O)[C@H](O[C@@H]2O[C@@H](C)[C@](O)(C=O)[C@H]2O[C@@H]2O[C@@H](CO)[C@H](O)[C@@H](O)[C@@H]2NC)[C@@H](N/C(N)=N\[H])[C@@H]1O` 1

Output MIC of `CO[C@H]1/C=C/O[C@@]2(C)Oc3c(C)c(O)c4c(O)c(c(/C=N/N5CCN(C)CC5)c(O)c4c3C2=O)NC(=O)/C(C)=C\C=C\[C@H](C)[C@H](O)[C@@H](C)[C@@H](O)[C@@H](C)[C@H](OC(C)=O)[C@@H]1C` 0.25
